The reported numbers originate from patent US20240309113A1.

Target: T1, human MASP-2 protein (recombinant, full-length, C-terminal tag) (human, UniProt O00187 16-686)
T1 construct: The protein was secreted and purified on an anti-FLAG or anti-HIS column; also called hMASP-2; Full-length human MASP-2 protein; not shown: C-terminal HIS-tag or FLAG-tag
T1 sequence (O00187 16-686): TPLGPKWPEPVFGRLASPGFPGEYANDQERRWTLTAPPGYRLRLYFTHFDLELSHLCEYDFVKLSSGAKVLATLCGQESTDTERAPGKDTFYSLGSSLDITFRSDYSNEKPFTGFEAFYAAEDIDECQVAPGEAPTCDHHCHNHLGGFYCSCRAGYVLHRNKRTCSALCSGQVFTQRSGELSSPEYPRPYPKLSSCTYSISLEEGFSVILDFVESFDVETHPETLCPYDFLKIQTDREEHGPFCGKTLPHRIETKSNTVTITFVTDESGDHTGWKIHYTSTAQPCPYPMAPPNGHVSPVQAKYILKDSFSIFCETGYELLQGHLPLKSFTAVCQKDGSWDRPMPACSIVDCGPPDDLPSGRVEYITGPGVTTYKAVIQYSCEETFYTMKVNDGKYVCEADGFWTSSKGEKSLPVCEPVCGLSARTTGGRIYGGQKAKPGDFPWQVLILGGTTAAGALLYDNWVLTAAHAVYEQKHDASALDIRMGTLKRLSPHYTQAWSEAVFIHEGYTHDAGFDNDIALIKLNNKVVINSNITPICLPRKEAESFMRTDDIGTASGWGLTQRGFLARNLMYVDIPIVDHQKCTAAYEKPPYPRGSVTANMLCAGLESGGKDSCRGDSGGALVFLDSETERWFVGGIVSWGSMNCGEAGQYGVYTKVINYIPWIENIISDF
Test: BLI (ForteBio Octet RED96), antibody on Protein A biosensor, human MASP-2 in solution (100, 50, 25 nM)
MEASURED_ENDPOINT: Kd (nM)
# value in nM; strip the unit string

Example entries begin here.
129C10 HaLb (antibody, human IgG4, V domains shown, Humanized) VH: QVQLVQSGAEVKKPGASVKVSCKASGYTFTDYYINWVRQAPGQGLEWMGWIFPGSESAYHSEKFKARVTMTVDTSISTAYMELSRLRSDDTAVYYCTRGDRSGPFAYWGQGTLVTVSS VL: DVVMTQSPLSLPVTLGQPASISCKSSQSLLYSNGKTYLNWLQQRPGQSPRRLIYLVSKLDSGVPDRFSGSGSGADFTLKISRVEAEDVGVYYCVQVTHFPFTFGQGTKLEIK = 11.4
129C10 HdLa (antibody, human IgG4, V domains shown, Humanized) VH: QVQLVQSGAEVKKPGASVKVSCKASGYTFTDYYINWVRQAPGQGLEWMGWIFPGSESAYHSQKFQGRATLTVDTSISTAYMELSRLRSDDTAVYYCTRGDRSGPFAYWGQGTLVTVSS VL: DVVMTQSPLSLPVTLGQPASISCKSSQSLLYSNGKTYLNWLQQRPGQSPRRLIYLVSKLDSGVPDRFSGSGSGTDFTLKISRVEAEDVGVYYCVQVTHFPFTFGQGTKLEIK = 17.1

With those in mind, consider the next binder.
Q: May I ask what Kd has been recorded for 129C10 HcLb (antibody, human IgG4, V domains shown, Humanized) VH: QVQLVQSGAEVKKPGASVKVSCKASGYTFTDYYINWVRQAPGQGLEWMGWIFPGSESAYHSQKFQGRVTMTVDTSISTAYMELSRLRSDDTAVYYCTRGDRSGPFAYWGQGTLVTVSS VL: DVVMTQSPLSLPVTLGQPASISCKSSQSLLYSNGKTYLNWLQQRPGQSPRRLIYLVSKLDSGVPDRFSGSGSGADFTLKISRVEAEDVGVYYCVQVTHFPFTFGQGTKLEIK ?
Ans: 1.36
